Just for reference, the supplement of paper PMC11780869 is where these values come from.

- System: Bacillus subtilis
- Procedure Summary: cleaved RNA product abundance (RNA/gDNA barcode ratio) relative to median wild-type variant (ratio to wild type); higher = more accumulation of the downstream cleavage product
- Experimental Parameters: experiment (reporter, strain, medium): exp 8a: truncated aprE reporter, strain BJT201 with 2% xylose (RNase J1 expressed); cleavage site: glnRA (positions -5 to +31 mutated)
Listing of recorded cleaved RNA product abundance by entry.
Give a plain numeric answer without units written out.

[ask] GET /values?readout=cleaved RNA product abundance&item= CGACATGTCCCGCTTCTTTCATTAATCCGTTACCAACTCTTTTGCTATATACATTTACCTTTTAAGAGGAGGAAT
[reply] 0.128
